Cited source: paper PMC2756588

Measurement Target: T1, Sla1-3, P32790
T1 sequence (P32790 344-424, looked up): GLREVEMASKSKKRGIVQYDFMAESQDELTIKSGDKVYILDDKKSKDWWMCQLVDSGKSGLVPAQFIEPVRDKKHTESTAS
Protocol Text: SPOT array
Study Conditions: median of control spots 5475
What SPOT intensity was measured for each of the following?
Answers are plain numbers.

Worked examples follow.
Binder | Endpoint Result
PELAPKREAPKPPAN | 0
EVTPKVPERPSRRKT | 15
QRKSLRRPTLSKPAV | 22
RFKRHRLEFPFNESE | 97
GPPPPLPPPLFPSSS | 0

I have 2 binders here; please give me SPOT intensity for each one.
1. RHLKLVPSTPMDIPW
2. AGKRRLPLVRFKASD

1: 290; 2: 27
